Attribute: Bliss excess
system: ME-1 (Acute Myeloid Leukemia); experiment: Bliss excess, mean over the matrix (fraction); higher = more synergy;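 also: after 72 h of two-drug dosing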
ENDPOINT_NAME: Bliss excess

[[record]]
compound = "CN(CCO)CC[C@H](CSc1ccccc1)Nc1ccc(S(=O)(=O)NC(=O)c2ccc(N3CCC([C@@H](O)c4ccccc4-c4ccc(Cl)cc4)CC3)cc2)cc1S(=O)(=O)C(F)(F)F [AZD4320] + Cn1cnc2c(F)c(Nc3ccc(Br)cc3Cl)c(C(=O)NOCCO)cc21 [Selumetinib] (first compound max 1 µM, 7x7, partner max 3 µM)"
assay_target = "ME-1 (Acute Myeloid Leukemia)"
reported = 0.0484

[[record]]
compound = "COc1cc2c(cc1OCCCCCOc1cc3c(cc1OC)C(=O)N1C=C(C)C[C@H]1C=N3)N=C[C@@H]1CC(C)=CN1C2=O [SG3199] + O=C(c1cc(Cc2n[nH]c(=O)c3ccccc23)ccc1F)N1CCN(C(=O)C2CC2)CC1 [Olaparib] (first compound max 0.001 µM, 7x7, partner max 10 µM)"
assay_target = "ME-1 (Acute Myeloid Leukemia)"
reported = -0.013

[[record]]
compound = "NC1(C(=O)N[C@@H](CCO)c2ccc(Cl)cc2)CCN(c2ncnc3[nH]ccc23)CC1 [Capivasertib] + CC(=O)c1c(C)c2cnc(Nc3ccc(N4CCNCC4)cn3)nc2n(C2CCCC2)c1=O [Palbociclib] (first compound max 10 µM, 7x7, partner max 10 µM)"
assay_target = "ME-1 (Acute Myeloid Leukemia)"
reported = -0.11


Reference source: the supplement of paper PMC11061612
